Source listed as PubChem BioAssay AID1159580.

- procedure.text: chemical genetic growth profiling, strain panel (AID 1159580);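 also: tested at 20 µM; growth read once vehicle control cultures reached saturation at 30 °C; lower values mean less growth of the strain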
- settings: S. cerevisiae deletion strains, growth OD, locus YGR078C, strain PAC10
Screen size: about 5,500 compounds; about 2,000 (36%) were called active. About 18% were inconclusive and are not listed. Rule as the data show it: active = normalized growth mostly below about 0.91 (no sharp cut-off); inconclusive = no clear call, values can overlap the other calls; inactive = mostly above about 0.92. This is one part of the list.
The categories you may choose from are active, inactive

What call does the record list for CCC(C)N(C)C(=O)c1cc2ccccc2c(-c2ccccc2Cl)n1 (stereo unspecified) ? inactive

How was COc1ccc(/C=C/c2cc(O)cc(O)c2)cc1 classified in this test? active

For this compound, state the assay outcome: COc1ccc(-c2cc(C(F)F)nn2-c2ccc(S(N)(=O)=O)cc2)cc1F inactive

What call does the record list for COc1ccc(/C=C/c2cc(O)cc(O[C@@H]3O[C@H](CO)[C@@H](O)[C@H](O)[C@H]3O)c2)cc1O ? inactive

# lookup: test call for O=c1cccc2n1C[C@H]1CNCC2C1 inactive

Would you mind telling me which call this test gave COc1ccc(CN(Cc2ccc(OC)cc2)C(=O)c2cccs2)cc1 ? inactive

Which outcome was entered for the compound Oc1cc(O)cc(/C=C/c2ccc(O)c(O)c2)c1 in this test? active

Write down the call the test reported for this compound. Item: N/C(=N\OC(=O)c1ccno1)c1ccc(C(F)(F)F)cc1 inactive

Lab log entry: CCCCCCCC1CC/C(=C\c2ccc(/C=C3\CCC(CCCCCCC)C3=O)cc2)C1=O (stereo unspecified) — outcome as called in the assay? inactive

GET /call?item= Nc1c(Br)cc(Br)cc1CNC1CCC(O)CC1 (stereo unspecified) returns the recorded outcome of this test. inactive

Recorded call for O=c1cc(O)cc(/C=C/c2ccc(O)c(O)c2)o1 ? inactive
